Data provenance is PubChem BioAssay (NCI).

Tested on: MCF7 breast
Assay: NCI tumour cell line growth inhibition, 48 h
Items are presented alongside their recorded TGI.

{"columns": ["smilesRepr", "units", "valueOperator", "TGI"],
 "data": [
  ["CCc1c(O)c2c(c(O)c1C(C)=O)C(=O)c1c(cc(O)c(C(=O)O)c1C(=O)O)C2=O", "µM", ">", 100],
  ["C#C[C@]1(O)CC[C@H]2[C@@H]3CCC4=C/C(=N\\OCCN(CC)CC)CC[C@]4(C)[C@H]3CC[C@@]21C", "µM", "=", 21.3],
  ["Cc1ccc2c(c1)O/C(=C\\c1ccc([N+](=O)[O-])o1)C2=O", "µM", "=", 2.01],
  ["O=S(=O)(O)c1cc(N=Nc2cc(S(=O)(=O)O)c3cccnc3c2O)ccc1/C=C/c1ccc(N=Nc2cc(S(=O)(=O)O)c3cccnc3c2O)cc1S(=O)(=O)O", "µM", ">", 100]
]}
